# Tested on: SNB-75
# method: NCI tumour cell line growth inhibition, 48 h
Calls of active or inactive are those of the source. Rule as the data show it: active = GI50 up to about 1.1 µM and inactive = higher.
Kindly supply the reported GI50 values for the records listed here.

Cc1ccc(C)n1-c1ccccc1C1C=Cn2c3c1c(=O)c(OC(C)C)c(OC(C)C)c-3n[nH]c2=O (stereo not drawn) :: 25.4 µM (inactive)
COc1ccc2cc(C(C)C(=O)N3CCOC3=O)ccc2c1 (stereo not drawn) :: 44.7 µM (inactive)
CC(C)(C)OC(=O)NC(CSSCC(NC(=O)OC(C)(C)C)C(=O)O)C(=O)O (stereo not drawn) :: > 100 µM (inactive)
c1ccc(-c2c(-c3[nH]c4ccccc4c3-c3ccccc3)[nH]c3ccccc23)cc1 :: 4.15 µM (inactive)

Would you mind listing GI50 for each of the following compounds?
1. COC(=O)N1C=Cc2c(c(C)c3c([nH]c4ccccc43)c2C)C1C (stereo not drawn)
2. O=c1sc(Nc2ccc3ccccc3c2Cl)nc2ccccc12
3. COC(=O)C1=C(C(=O)OC)SC2(S1)C(C(=O)OC)=C(C(=O)OC)Sc1c2ss/c1=N/C(C)(C)C
4. COC(=O)c1s/c(=N\C(=S)N(C)C)n(-c2ccccc2)c1C(=O)OC

### Response
1: 15.3 µM (inactive); 2: 49.3 µM (inactive); 3: 1.45 µM (inactive); 4: 52.2 µM (inactive)
